Every entry's value here was drawn from ChEMBL document CHEMBL5724801.

Tested on: U2OS
ASSAY METHOD TEXT: Multiplex assay against U2OS
Assay type: toxicity, cell-based
RECORDED CONDITIONS: human, 48 h, 10 µM, compound concentration 10 uM
ASSAY READOUT: Population Hoechst High Intensity Objects (%)
Your answer should be a plain number; it is taken to be in %.

Under U2OS: Population Hoechst High Intensity Objects (%) value of Cc1cc(C)cc(C(=O)NOCCCCCC(=O)NO)c1 ?
0

Under U2OS: Population Hoechst High Intensity Objects (%) value of Cn1ncnc1COc1nn2c(-c3cc(F)ccc3F)nnc2cc1C(C)(C)C ?
0

Under U2OS: Population Hoechst High Intensity Objects (%) value of O=C(Nc1cc(-c2ccccc2)nn1-c1ccccc1F)c1ccc([N+](=O)[O-])cc1 ?
2
